In this section, each of the variants is paired with its reported protein stability index.
B1: HDAC6 (parent)
chain: ACAQLATGAACRLVEAVLSGEVLN

- Variants of: B1
- test.description: protein stability index of a GFP-peptide fusion (GPS, HEK-293T) (PSI 1-6); higher = more stable;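 also: lentivirally expressed fusions sorted by FACS into six bins by GFP to DsRed ratio, PSI derived from sequencing read proportions per bin multiplied by bin number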
- setup.conditions: c terminus: a fixed tail appended
Write the number on its own, no unit after it.

Use these answered entries as a reference point.
ACAQLATGAACRLVEAVQSGEVLN [L18Q]    2.2
ACAQLATGAACRLVEAVASGEVLN [L18A]    1.69
ACAQLATGAACRLVEAVHSGEVLN [L18H]    2.47
ACAQLATGAACRSVEAVLSGEVLN [L13S]    1.68
ACAQLATGKACRLVEAVLSGEVLN [A9K]    2.23

Q: Quick one: protein stability index for ACAQLATGAACRHVEAVLSGEVLN [L13H] ?
Ans: 3.21

Q: Please give the measured protein stability index for this variant: ACAQLATGAACRLVEAVLSGEVLD [N24D]
Ans: 1.87

Q: Can you share its protein stability index? I mean this variant: ACAQLATGAACRLVEAVLSGEVEN [L23E]
Ans: 2.83

Q: protein stability index for ACAQLATGAACRLVEDVLSGEVLN [A16D] ?
Ans: 2.78

Q: Tell me the measured protein stability index of ACAQLAMGAACRLVEAVLSGEVLN [T7M] , please.
Ans: 3.57

Q: // returns reported protein stability index for input ACAQLATGAACRLVEAVLSGEGLN [V22G]
Ans: 2.44

Q: Which protein stability index value belongs to AKAQLATGAACRLVEAVLSGEVLN [C2K] ?
Ans: 1.99

Q: So what's the measured protein stability index for this one? ACAQLATGGACRLVEAVLSGEVLN [A9G]
Ans: 1.69

Q: Report protein stability index for ACAQLATGDACRLVEAVLSGEVLN [A9D] please.
Ans: 2.61

Q: Please look up its protein stability index: ACAQLATGAACRLGEAVLSGEVLN [V14G]
Ans: 2.17

Q: Please look up its protein stability index: ACAQLNTGAACRLVEAVLSGEVLN [A6N]
Ans: 1.48

Q: Query (variant): ACAQLATGAACRLVEAVLSGEALN [V22A] ; field requested: protein stability index
Ans: 3.65

Q: What does the record list as protein stability index for ACAKLATGAACRLVEAVLSGEVLN [Q4K] ?
Ans: 2.69

Q: Which protein stability index is listed for ACAQLQTGAACRLVEAVLSGEVLN [A6Q] ?
Ans: 2.74

Q: Find the recorded protein stability index belonging to ACAALATGAACRLVEAVLSGEVLN [Q4A] and report it.
Ans: 2.68

Q: Quick one: protein stability index of ACAQLATDAACRLVEAVLSGEVLN [G8D] ?
Ans: 2.67

Q: Reported protein stability index, variant ACWQLATGAACRLVEAVLSGEVLN [A3W] : ____
Ans: 2.17

Source: the supplement of paper PMC10567573
